- System: RPMI-8226 leukemia
- ASSAY_COMMENT: NCI-60 one-dose screen, 48 h
- COND: 10 µM unless noted
About 83,000 compounds went through this panel and 20% of them were active in at least one assay; those are over-represented in the sample as a whole. Activity calls are given as the source filed them. How the source made its calls: active means growth percent below 10; inactive means the rest.
Just give me one of these, please: True = active, False = inactive

Example entries begin here.
{"columns": ["COMPOUND", "CATEGORY_LABEL"],
 "data": [
  ["CC1=C(C(=O)Nc2ccccc2)C(c2ccc3ccccc3c2)n2c(nc3ccccc32)N1 (centres undefined)", "False"],
  ["Cc1ccc2c(c1)nc(-c1ccccc1)n2CC(=O)N=Nc1c(O)[nH]c2ccc(Cl)cc12", "True"],
  ["Cc1ccc(C(=O)Nc2ccc(-n3ccnc3)c(C(F)(F)F)c2)cc1C#Cc1cnc2cccnn12", "True"]
]}

-- ask # outcome recorded in this test, key = COc1ccc2c(c1)C(Sc1ccc(F)cc1)c1c(nc(N)c(C#N)c1N)O2 (centres undefined)
-- reply False

-- ask # outcome recorded in this test, key = `Cc1ccc2nc(NC(=O)Nc3cccc(Cl)c3)sc2c1`
-- reply False

-- ask # outcome recorded in this test, key = `CCN1CCN(Cc2ccc(C(=O)Nc3cccc(Nc4ccc5c(OC)cccc5n4)c3)cc2C(F)(F)F)CC1`
-- reply True

-- ask # outcome recorded in this test, key = `CCCCCCCCc1cccc(CC(=O)Nc2ccc(C)cc2C(=O)O)c1`
-- reply False

-- ask # outcome recorded in this test, key = CC1=C(C(=O)OCc2ccccc2)C(c2ccc(N(C)C)cc2)n2c(nc3ccccc32)N1 (centres undefined)
-- reply False

-- ask # outcome recorded in this test, key = COc1cc(C2C(C(=O)OCc3ccccc3)=C(C)Nc3nc4ccccc4n32)cc(OC)c1OC (centres undefined)
-- reply False

-- ask # outcome recorded in this test, key = `COc1ccccc1NC(=O)N/N=C/c1c[nH]c2ccccc12`
-- reply False

====

In this section, each of the compounds is paired with its reported growth.
- System: EKVX NSCLC
- ASSAY_COMMENT: NCI-60 one-dose screen, 48 h (100 = growth as untreated, 0 = no growth, -100 = all killed)
- COND: 10 µM unless noted
This is part of a sample that, as a whole, favours compounds with a hit. Of some 83,000 tested, about 20% had one in any assay.
Field: numeric (%). Do not append units.

Consider the reported growth for these compounds:
{"columns": ["SMILES_STRUCTURE", "growth, %"],
 "data": [
  ["COc1ccc(N=Nc2c(N)nn3c(-c4cc5cc(Br)ccc5oc4=O)ccnc23)cc1", 34.8],
  ["CN(C)c1nc(NCCNS(=O)(=O)c2ccc(C(=O)/C=C/c3ccc(Cl)cc3)cc2)nc(N2CCOCC2)n1", 49.6],
  ["COc1ccccc1Nc1nnc(-c2c[nH]c3ccccc23)o1", 10.2]
]}

Pending compound:
-- ask Given `O=C1c2cccc3c(N4CCN(Cc5ccccc5)CC4)ccc(c23)C(=O)N1c1cccc(-c2nn(-c3ccccc3)cc2-c2nc3ccccc3s2)c1` , respond with its growth.
-- reply 98.6

====

In this section, each of the molecules is paired with its reported growth.
- Test system: MDA-MB-231 breast
- ASSAY_COMMENT: NCI-60 one-dose screen, 48 h (100 = growth as untreated, 0 = no growth, -100 = all killed)
- COND: 10 µM unless noted
The panel holds about 83,000 compounds, 20% with a hit somewhere; the sample as a whole holds those more often. Activity calls are given as the source filed them. Rule for the calls: active = growth percent below 10; inactive = the rest.

{"columns": ["MOLECULE", "growth"],
 "data": [
  ["N#CC1=C(c2cccs2)Nc2c(c(-c3ccccc3)nn2-c2ccccc2)C12C(=O)Nc1ccccc12 (stereo not drawn)", "34.2% (inactive)"]
]}

-- ask Given CCc1ccc(SC2c3cc(OC)ccc3Oc3nc(N)c(C#N)c(N)c32)cc1 (stereo not drawn) , respond with its growth.
-- reply -41.4% (active)

-- ask Given `O=C1N/C(=N\c2nccs2)S/C1=C\c1ccc([N+](=O)[O-])cc1` , respond with its growth.
-- reply 10.8% (inactive)

-- ask Given `Cc1ccc(C(=O)Nc2cc(-n3ccnc3C)cc(C(F)(F)F)c2)cc1C#Cc1cnc2cccnn12` , respond with its growth.
-- reply -37.5% (active)

-- ask Given CC1=C(C(=O)OCc2ccccc2)C(c2cccc3ccccc23)n2c(nc3ccccc32)N1 (stereo not drawn) , respond with its growth.
-- reply 37.9% (inactive)

-- ask Given `O=C(Nc1ccc(-c2ccc3c(c2)NC(=O)/C3=C\c2ccc[nH]2)cc1)Nc1ccc(Cl)c(Cl)c1` , respond with its growth.
-- reply 71.5% (inactive)

-- ask Given `O=C1Nc2cc(-c3ccc(NS(=O)(=O)c4ccc([N+](=O)[O-])cc4)cc3)ccc2/C1=C/c1ccc[nH]1` , respond with its growth.
-- reply 12.3% (inactive)
